Tested on: NCI/ADR-RES ovarian
protocol_notes: NCI-60 one-dose screen, 48 h
setup_conditions: 10 µM unless noted
About 83,000 compounds went through this panel and 20% of them were active in at least one assay; those are over-represented in the sample as a whole. Activity calls are given as the source filed them. How the source made its calls: active means growth percent below 10; inactive means the rest.
Thanks in advance; please answer with one of these: yes for active, no for inactive

Past entries and their recorded results:
[[record]]
input_smiles = "CCN(CC)CCSc1nc(-c2ccccc2)c(C#N)c(=O)[nH]1"
target_or_system = "NCI/ADR-RES ovarian"
cat = "no"

[[record]]
input_smiles = "O=C(/C=C/c1ccccc1)c1cccc(OCCCOc2cccc(C(=O)/C=C/c3ccccc3)c2)c1"
target_or_system = "NCI/ADR-RES ovarian"
cat = "no"


(Q) Hi, sorry to bother you, what did the test record for c1cc2[nH]ncc2cc1-c1nc2ccc3[nH]ncc3c2c2c1CCCC2 ?
(A) no

(Q) Hi, sorry to bother you, what did the test record for Fc1cc(F)cc(C(c2c[nH]c3ccccc23)c2c[nH]c3ccccc23)c1 ?
(A) no

(Q) Hi, sorry to bother you, what did the test record for NC(=O)c1c(NC(=O)c2ccccc2)sc2c1CCC(=O)C2 ?
(A) yes

Reference for the values: PubChem BioAssay (NCI)
